# Procedure Summary: chemical genetic growth profiling, strain panel (AID 1159580);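 also: tested at 20 µM; growth read once vehicle control cultures reached saturation at 30 °C; 1 = growth at the plate median or of vehicle wells; lower values mean less growth of the strain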
# Test Conditions: S. cerevisiae deletion strains, growth OD, locus YPR163C, strain tif3, stronger effect = lower value
Hit rate of the full screen: of about 5,500 compounds, about 2,000 (36%) were called active. About 18% were inconclusive and are not listed. This is one part of the list.
Attribute Measured: normalized growth
Numbers only.

Check out these entries, answers already filled in.
{"Compound": "CC1(C)S[C@@H]2[C@H](NC(=O)C(C(=O)O)c3ccccc3)C(=O)N2[C@H]1C(=O)O (some centres undefined)", "normalized growth": 0.989}
{"Compound": "COC(=O)CC1C(C)(C)C(OC(C)=O)[C@@H]2[C@@H](OC(C)=O)[C@]34O[C@@]2(O)[C@]1(C)C3CC[C@]1(C)C4=CC(=O)O[C@H]1c1ccoc1 (some centres undefined)", "normalized growth": 1.01}
{"Compound": "C[N+]1(C)C[C@H](O)[C@H](C(=O)[O-])C1", "normalized growth": 0.996}

// next item, normalized growth requested
The compound listed as CC[C@H]1CN2CCC1C[C@@H]2[C@@H](O)c1ccnc2ccc(OC)cc12 (some centres undefined) shows normalized growth equal to 1.02

* * *

# Procedure Summary: chemical genetic growth profiling, strain panel (AID 1159580);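 also: tested at 20 µM; growth read once vehicle control cultures reached saturation at 30 °C; 1 = growth at the plate median or of vehicle wells; lower values mean less growth of the strain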
# Test Conditions: S. cerevisiae deletion strains, growth OD, locus YDL040C, strain nat1, stronger effect = lower value
Screen size: about 5,500 compounds; about 2,000 (36%) were called active. Another 18% or so got no clear call; they are omitted. Some of the results follow.
Attribute Measured: normalized growth
One number for each entry.

# batch: return normalized growth for each of the 4 compounds below
1. NC[C@@H]1O[C@H](O[C@@H]2[C@@H](CO)OC(O[C@@H]3[C@@H](O)[C@H](N)C[C@H](N)[C@H]3O[C@H]3O[C@H](CO)[C@@H](O)[C@H](O)[C@H]3N)[C@@H]2O)[C@H](N)[C@@H](O)[C@@H]1O (stereo partly specified)
2. CCC(=O)OCC(=O)C1(OC(=O)CC)C(C)CC2C3C(Cl)CC4=CC(=O)C=CC4(C)C3C(O)CC21C (stereo unspecified)
3. O=C(/C=C(\O)c1ccccc1)c1ccccc1O
4. Oc1ccc2c3c1OC1[C@@H](O)CC[C@@]4(O)[C@@H](C2)N(CC2CCC2)CC[C@]314 (stereo partly specified)

Given back:
1. 0.984
2. 1.01
3. 0.918
4. 1

# batch: return normalized growth for each of the 2 compounds below
1. CCC(=O)O[C@]1(C(=O)CCl)[C@@H](C)CC2C3CCC4=CC(=O)C=C[C@]4(C)[C@@]3(F)[C@@H](O)C[C@@]21C (stereo partly specified)
2. COC(=O)[C@H]1[C@H]2C[C@H]3c4[nH]c5cc(OC)ccc5c4CCN3C[C@H]2C[C@@H](OC(=O)c2cc(OC)c(OC)c(OC)c2)[C@@H]1OC

Given back:
1. 1.03
2. 1.01

# batch: return normalized growth for each of the 5 compounds below
1. CC(C)Nc1nc(Cl)nc(NC(C)C)n1
2. Cc1ncc(CO)c(CO)c1O
3. COC1=CC(C)[C@@H]2C[C@H]3OC(=O)C[C@H]4C(C)=C(OC)C(=O)C([C@@]34C)[C@@]2(C)C1=O (stereo partly specified)
4. CCCc1nc(C)c2c(=O)[nH]c(-c3cc(S(=O)(=O)N4CCN(CC)CC4)ccc3OCC)nn12
5. CC(C)(C)NCC(O)COc1cccc2c1CCCC2=O (stereo unspecified)

Given back:
[0.999, 1.02, 0.981, 0.985, 0.978]

# batch: return normalized growth for each of the 5 compounds below
1. C=CCSCC=C
2. CC[C@@]1(O)C(=O)OCc2c1cc1n(c2=O)Cc2cc3cc(O)ccc3nc2-1
3. CC1(C)S[C@@H]2[C@H](NC(=O)C(C(=O)O)c3ccccc3)C(=O)N2[C@H]1C(=O)O (stereo partly specified)
4. NC[C@H]1O[C@H](OC2[C@@H](N)C[C@@H](N)[C@H](O[C@H]3O[C@H](CO)[C@@H](O)[C@H](N)[C@H]3O)[C@H]2O)[C@H](O)[C@@H](O)[C@@H]1O (stereo partly specified)
5. CCC(=O)OCC(=O)C1(OC(=O)CC)C(C)CC2C3CCC4=CC(=O)C=CC4(C)C3(Cl)C(O)CC21C (stereo unspecified)

Given back:
0.993
1.02
0.997
1
0.973

# batch: return normalized growth for each of the 6 compounds below
1. CCCCC(=O)O[C@]1(C(=O)CO)[C@@H](C)CC2C3CCC4=CC(=O)C=C[C@]4(C)[C@@]3(F)C(O)C[C@@]21C (stereo partly specified)
2. COc1nc(NC(C)C)nc(NC(C)C)n1
3. C/C=C(\C)C(=O)O[C@@H]1c2c(ccc3ccc(=O)oc23)OC(C)(C)[C@@H]1OC(C)=O
4. COC(=O)N/N=C\c1c[n+]([O-])c2ccccc2[n+]1[O-]
5. CC1(C)[C@@H]2CC[C@@]1(C)C(=O)C2
6. C[C@@H]1CC[C@@]23CCC4(C)[C@@](C=CC5[C@@]6(C)CCC(=O)C(C)(C)C6CC[C@]54C)(OC2=O)C3[C@H]1C (stereo partly specified)

Given back:
1. 0.975
2. 1
3. 0.998
4. 0.989
5. 1
6. 0.997

# batch: return normalized growth for each of the 6 compounds below
1. CCC(=O)NCC[C@@H]1CCc2ccc3c(c21)CCO3
2. C[C@@H]1CC[C@@]23CCC4(C)[C@@](C=CC5[C@@]6(C)CC[C@H](O)C(C)(C)C6CC[C@]54C)(OC2=O)C3[C@H]1C (stereo partly specified)
3. Nc1nc(/C(=C/CC(=O)O)C(=O)N[C@@H]2C(=O)N3C(C(=O)O)=CCS[C@H]23)cs1
4. CCC(=O)OCC(=O)[C@@]1(OC(=O)CC)[C@@H](C)CC2C3CCC4=CC(=O)C=C[C@]4(C)C3(F)[C@@H](O)C[C@@]21C (stereo partly specified)
5. O=C(O)C1=CC(=C(c2ccc(O)c(C(=O)O)c2)c2ccc(O)c(C(=O)O)c2)C=CC1=O
6. OC1(c2ccc(Cl)c(C(F)(F)F)c2)CCN(CCCC(c2ccc(F)cc2)c2ccc(F)cc2)CC1

Given back:
1: 1; 2: 1.06; 3: 0.997; 4: 1; 5: 0.987; 6: 0.109

# batch: return normalized growth for each of the 7 compounds below
1. COC1=CC(=O)C=C(OC)C1=O
2. O=C1CC2(CCCC2)CC(=O)N1CCCCN1CCN(c2ncccn2)CC1
3. CC1(C)C(O)CC(=O)C2(C)C1CC(O)C1(C)C2CCC2(C)C(c3ccoc3)OC(=O)C3OC321 (stereo unspecified)
4. O=C(CCCN1CCN(c2ccccn2)CC1)c1ccc(F)cc1
5. O=C(CCCN1CCC(O)(c2ccc(Cl)cc2)CC1)c1ccc(F)cc1
6. CC1=CC(=O)C(C(C)C)=CC1=O
7. CC1(C)C(=O)CC[C@@]2(C)C1C[C@@H](O)[C@@]1(C)C3=CC(=O)O[C@@H](c4ccoc4)[C@]3(C)CCC21 (stereo partly specified)

Given back:
[0.992, 0.996, 0.997, 0.984, 1.02, 0.996, 1.02]

The compound listed as `CC(C)C[C@@H](NC(=O)OCC1c2ccccc2-c2ccccc21)C(=O)O` shows normalized growth equal to 0.985

* * *

Provide the recorded normalized growth for the entries that follow.
# Procedure Summary: chemical genetic growth profiling, strain panel (AID 1159580);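 also: tested at 20 µM; growth read once vehicle control cultures reached saturation at 30 °C; 1 = growth at the plate median or of vehicle wells; lower values mean less growth of the strain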
# Test Conditions: S. cerevisiae deletion strains, growth OD, locus YKR001C, strain vps1, stronger effect = lower value
The campaign covered roughly 5,500 compounds. About 2,000 (36%) were called active. Not shown: some 18% with an inconclusive outcome. This is one part of the list.
One number for each entry.

{"Compound": "CC1(C)S[C@@H]2[C@H](NC(=O)[C@@H](N)c3ccc(O)cc3)C(=O)N2[C@H]1C(=O)O", "Attribute Measured": "normalized growth", "Meas Value": 0.982}
{"Compound": "COc1cc(C)c2c(=O)c3c(O)cc(OC)cc3oc2c1", "Attribute Measured": "normalized growth", "Meas Value": 0.982}
{"Compound": "CSCCC(N)C(=O)NC(CC(C)C)C(=O)NC(Cc1ccccc1)C(=O)O (stereo unspecified)", "Attribute Measured": "normalized growth", "Meas Value": 0.995}

# batch: return normalized growth for each of the 8 compounds below
1. COc1ccc(-c2cc(=O)c3c(O)cc(O)c(-c4cc(-c5cc(=O)c6c(O)cc(O)cc6o5)ccc4OC)c3o2)cc1
2. NC(=O)c1ccc([N+](=O)[O-])cc1Cl
3. NC(=O)c1cc([N+](=O)[O-])cc([N+](=O)[O-])c1
4. COc1cc(O)c2c(=O)cc(-c3ccc(OC)c(-c4c(O)cc(O)c5c(=O)cc(-c6ccc(O)cc6)oc45)c3)oc2c1
5. C[N+]1(C)C[C@H](O)[C@H](C(=O)[O-])C1
6. NCC(O)CC(=O)O (stereo unspecified)
7. Cc1c(C(N)=O)cc([N+](=O)[O-])cc1[N+](=O)[O-]
8. COc1cc(C)c2c(=O)c3c(O)cc(O)cc3oc2c1

Given back:
1.01
0.969
0.997
0.962
0.995
1
0.993
0.871
